# targetOrSystem: T1, FLRT3 (antigen of the binning assay of Table 2) (Homo sapiens (Human), UniProt Q9NZU0 29-528, limits assumed)
# T1 construct: the whole entry for FLRT3 is named
# T1 sequence: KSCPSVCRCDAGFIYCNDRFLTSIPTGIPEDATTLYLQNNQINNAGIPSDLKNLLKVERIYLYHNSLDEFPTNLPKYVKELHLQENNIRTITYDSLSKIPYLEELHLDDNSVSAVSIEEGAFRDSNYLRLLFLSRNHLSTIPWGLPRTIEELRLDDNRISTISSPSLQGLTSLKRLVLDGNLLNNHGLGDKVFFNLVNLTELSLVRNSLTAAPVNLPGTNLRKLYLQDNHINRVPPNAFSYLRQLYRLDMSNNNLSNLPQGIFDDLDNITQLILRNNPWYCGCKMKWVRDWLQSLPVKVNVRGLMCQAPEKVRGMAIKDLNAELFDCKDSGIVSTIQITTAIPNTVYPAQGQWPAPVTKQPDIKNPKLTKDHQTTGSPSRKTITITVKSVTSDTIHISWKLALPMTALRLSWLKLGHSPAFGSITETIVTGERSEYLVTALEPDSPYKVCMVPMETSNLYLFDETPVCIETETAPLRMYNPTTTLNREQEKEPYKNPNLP
# protocolText: antibody binning matrix (Table 2); competitor: 2F7
quantity: binning response (no name or unit printed)
Reply with just the number.

INPUT: Entry 14B7 (antibody, V domains shown, Variable domains only; also called FLRT3 mAb 14B7; antibody 14B7) VH: QVQLQQSGPELVKPGASVNISCKASGYAFGNSWMNWVKQRPGKGLEWIGWIYPGDGNANYNGKFKGKATLTADKSSSTAYMQLSSLTSEDSAVYFCARALYDYDGWFAYWGQGTLVTVSA VL: DIQMNQSPSSLSASLGDTITIACRASQNIDIWLSWYQQKPGSIPKLLIYKASNLHTGVPSRFSGSGSGTDFTLTISSLQPEDIATYYCLQGQSFPFTFGSGTKLEIK has what binning response (no name or unit printed)?
OUTPUT: 0.771
